# testedSystem: Amine oxidase [flavin-containing] A (Homo sapiens, UniProt P21397)
# Sequence (P21397 whole entry): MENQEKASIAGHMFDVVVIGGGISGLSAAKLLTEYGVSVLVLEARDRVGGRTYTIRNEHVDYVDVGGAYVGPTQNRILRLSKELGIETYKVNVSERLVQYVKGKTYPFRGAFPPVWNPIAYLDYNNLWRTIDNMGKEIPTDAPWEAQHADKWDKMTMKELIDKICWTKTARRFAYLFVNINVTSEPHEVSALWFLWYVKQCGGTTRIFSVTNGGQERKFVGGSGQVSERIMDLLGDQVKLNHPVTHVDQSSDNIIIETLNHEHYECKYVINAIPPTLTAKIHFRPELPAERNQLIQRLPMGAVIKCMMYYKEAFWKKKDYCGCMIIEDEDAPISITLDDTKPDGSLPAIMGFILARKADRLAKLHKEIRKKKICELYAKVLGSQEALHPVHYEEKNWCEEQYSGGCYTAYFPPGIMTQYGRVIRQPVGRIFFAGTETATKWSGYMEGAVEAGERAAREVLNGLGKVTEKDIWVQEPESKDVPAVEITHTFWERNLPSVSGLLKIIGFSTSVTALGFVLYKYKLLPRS
# assayExplanation: Inhibition of recombinant human MAOA expressed in baculovirus infected insect cell microsomes using kynuramine as substrate assessed as formation of 4-hydroxyquinoline after 20 mins by fluorescence spectrophotometry
# Parameters: species or system Microsome
propertyMeasured: pKi
Answers are plain numbers, as −log10 of the molar value.

Cn1c(=O)c2c(nc(OCCCc3ccccc3)n2C)n(C)c1=O
4.61

I need pKi for every entry listed below, if you could help.
1. CC(C)CCOc1nc2c(c(=O)n(C)c(=O)n2C)n1C
2. Cn1c(=O)c2c(nc(OCC3CCCCC3)n2C)n(C)c1=O
3. Cn1c(=O)c2c(nc(OCCOc3ccc(Br)cc3)n2C)n(C)c1=O
4. Cn1c(=O)c2c(nc(OCc3ccc(Cl)cc3)n2C)n(C)c1=O
5. Cn1c(=O)c2c(nc(Oc3ccccc3)n2C)n(C)c1=O
6. Cn1c(=O)c2c(nc(OCc3ccc(Br)cc3)n2C)n(C)c1=O
7. Cn1c(=O)c2c(nc(OCCOc3ccccc3)n2C)n(C)c1=O
8. Cn1c(=O)c2c(nc(OCCOc3ccc(Cl)cc3)n2C)n(C)c1=O

Output:
1. 5.02
2. 5.19
3. 6.24
4. 6.33
5. 4.58
6. 6.34
7. 4.11
8. 6.19

I need pKi for every entry listed below, if you could help.
1. Cn1c(=O)c2c(nc(OCC3CC=CCC3)n2C)n(C)c1=O (centres undefined)
2. Cn1c(=O)c2c(nc(OCCc3ccccc3)n2C)n(C)c1=O
3. Cn1c(=O)c2c(nc(OCC3CCCC3)n2C)n(C)c1=O
4. Cn1c(=O)c2c(nc(OCCOCc3ccccc3)n2C)n(C)c1=O
5. CC(C)CCCCOc1nc2c(c(=O)n(C)c(=O)n2C)n1C

Output:
1: 5.32; 2: 5.25; 3: 5.10; 4: 4.23; 5: 5.27

====

# testedSystem: Amine oxidase [flavin-containing] B (Homo sapiens)
# Sequence (P27338 whole entry): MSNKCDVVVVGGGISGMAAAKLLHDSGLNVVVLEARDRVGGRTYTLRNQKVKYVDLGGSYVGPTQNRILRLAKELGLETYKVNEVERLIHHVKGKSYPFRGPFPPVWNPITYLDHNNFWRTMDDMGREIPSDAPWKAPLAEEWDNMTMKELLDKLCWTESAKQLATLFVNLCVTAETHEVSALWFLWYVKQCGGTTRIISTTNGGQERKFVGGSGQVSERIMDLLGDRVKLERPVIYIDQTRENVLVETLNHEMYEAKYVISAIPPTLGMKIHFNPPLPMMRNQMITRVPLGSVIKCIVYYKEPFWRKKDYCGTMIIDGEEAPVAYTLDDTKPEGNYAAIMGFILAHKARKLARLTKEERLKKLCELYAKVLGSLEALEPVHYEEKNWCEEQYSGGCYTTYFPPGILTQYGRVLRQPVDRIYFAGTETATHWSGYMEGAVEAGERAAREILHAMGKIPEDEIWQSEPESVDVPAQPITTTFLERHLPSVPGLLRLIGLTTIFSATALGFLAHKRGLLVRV
# assayExplanation: Inhibition of recombinant human MAOB expressed in baculovirus infected insect cell microsomes using kynuramine as substrate assessed as formation of 4-hydroxyquinoline after 20 mins by fluorescence spectrophotometry
# Design: species or system Microsome
Give measured pKi for each item. Keep answers brief.
Give bare numbers, as −log10 of the molar value.

# example entries with known answers
CC(C)CCOc1nc2c(c(=O)n(C)c(=O)n2C)n1C
4.99
Cn1c(=O)c2c(nc(OCC3CC=CCC3)n2C)n(C)c1=O (stereo not drawn)
5.66
Cn1c(=O)c2c(nc(OCCOCc3ccccc3)n2C)n(C)c1=O
5.56

I need pKi for every entry listed below, if you could help.
1. Cn1c(=O)c2c(nc(OCCOc3ccccc3)n2C)n(C)c1=O
2. Cn1c(=O)c2c(nc(Oc3ccccc3)n2C)n(C)c1=O
3. Cn1c(=O)c2c(nc(OCC3CCCCC3)n2C)n(C)c1=O
4. Cn1c(=O)c2c(nc(OCc3ccc(Cl)cc3)n2C)n(C)c1=O

Output:
1. 6.55
2. 5.11
3. 6.00
4. 7.32

I need pKi for every entry listed below, if you could help.
1. CC(C)CCCCOc1nc2c(c(=O)n(C)c(=O)n2C)n1C
2. Cn1c(=O)c2c(nc(OCCc3ccccc3)n2C)n(C)c1=O
3. Cn1c(=O)c2c(nc(OCCOc3ccc(Br)cc3)n2C)n(C)c1=O
4. Cn1c(=O)c2c(nc(OCC3CCCC3)n2C)n(C)c1=O

Output:
[6.55, 5.67, 6.92, 4.93]

I need pKi for every entry listed below, if you could help.
1. Cn1c(=O)c2c(nc(OCCCc3ccccc3)n2C)n(C)c1=O
2. Cn1c(=O)c2c(nc(OCc3ccc(Br)cc3)n2C)n(C)c1=O

Output:
1: 6.35; 2: 7.35

Origin of measurements: ChEMBL document CHEMBL1806454
